Parameter: Percent Effect. Scope: all listed entries.
# Test system: Trypanosoma cruzi
# Method Description: Trypanosoma cruzi phosphomannomutase and mannose-1-phosphate guanylyltransferase assay
# Type: functional
# Parameters: scale not given: direction of the effect not stated beside the values
# Condition Description: 10 µM
Supply the numeric figure in %, leaving out any unit text.

Guide cases for Percent Effect, answers given:
COc1ccccc1CN1CC[C@H]2C[C@@H](C(=O)N3CCCC3)O[C@H]2C1; -7.99
CCOC(=O)[C@]12CCCN(Cc3nccs3)C[C@H]1CN(CCN(C)C)C2; -0.493
CC(C)n1ccnc1CN1CCCN(C(=O)c2cccnc2O)CC1; 5.54

Give a short answer stating reported Percent Effect for `CN(CCO)Cc1nnc(C2CCN(C(=O)c3cccnc3)CC2)n1C` .
5.75

Please report Percent Effect for the following compound: CNC(=O)c1ccc(C(=O)N2CCCC2c2cnn(C)c2)cn1 (centres undefined)
3.08

For OC1CCCN(Cc2c(-c3ccco3)[nH]c3ncccc23)C1 (centres undefined) , write its Percent Effect.
2.17

Read off the recorded Percent Effect for `CCCS(=O)(=O)N1CCN(c2cc(-n3nc(C)cc3C)nc(C)n2)CC1`
7.57
